target: AR (Homo sapiens, UniProt P10275, T878A); test: Effects of compounds on AR expression in LNCaP cells (ELISA, DC50); type: cell-based; set-up: Measurement of the Effects of Drugs on the Expression of AR in Cells by ELISA Method; endogenous in cells; host or cells: LNCaP; settings: 24 hours of drug treatment, AR by ELISA
Sequence (P10275 whole entry T878A): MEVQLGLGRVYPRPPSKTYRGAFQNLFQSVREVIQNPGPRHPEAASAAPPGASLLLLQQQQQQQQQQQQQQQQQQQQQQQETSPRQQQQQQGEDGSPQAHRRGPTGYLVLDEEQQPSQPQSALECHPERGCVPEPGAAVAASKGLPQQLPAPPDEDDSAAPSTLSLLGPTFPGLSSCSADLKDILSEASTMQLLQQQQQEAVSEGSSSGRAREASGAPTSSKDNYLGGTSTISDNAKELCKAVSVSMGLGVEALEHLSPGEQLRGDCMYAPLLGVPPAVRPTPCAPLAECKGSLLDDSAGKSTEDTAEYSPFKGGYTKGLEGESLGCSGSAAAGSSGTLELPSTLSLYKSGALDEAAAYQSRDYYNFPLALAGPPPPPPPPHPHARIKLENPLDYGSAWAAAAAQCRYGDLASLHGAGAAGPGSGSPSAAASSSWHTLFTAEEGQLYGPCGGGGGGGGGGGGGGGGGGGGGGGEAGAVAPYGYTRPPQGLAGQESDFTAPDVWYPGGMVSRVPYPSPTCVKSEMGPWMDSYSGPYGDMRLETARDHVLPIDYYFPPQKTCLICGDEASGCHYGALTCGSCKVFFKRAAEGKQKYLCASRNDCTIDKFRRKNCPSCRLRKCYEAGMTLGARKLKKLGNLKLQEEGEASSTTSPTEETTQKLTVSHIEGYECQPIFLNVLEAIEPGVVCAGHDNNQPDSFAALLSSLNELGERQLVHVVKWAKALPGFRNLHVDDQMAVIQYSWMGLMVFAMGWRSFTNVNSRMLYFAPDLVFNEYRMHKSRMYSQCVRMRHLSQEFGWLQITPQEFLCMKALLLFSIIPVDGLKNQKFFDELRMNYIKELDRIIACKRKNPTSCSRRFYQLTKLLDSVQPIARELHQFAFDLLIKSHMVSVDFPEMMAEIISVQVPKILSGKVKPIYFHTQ
OUTCOME_MEASURE: DC50 (nM)

>  <COMPOUND>
CNC(=O)c1ccc(-c2c[nH]c([C@@H]3C[C@@H](O)CN3C(=O)[C@@H](NC(=O)COCCCCOc3ccc(-c4ncc(N5C(=S)N(c6ccc(C#N)c(C(F)(F)F)c6F)C(=O)C5(C)C)cc4F)c(C(F)(F)F)c3)C(C)(C)C)n2)cc1

>  <TARGET>
AR (Homo sapiens, UniProt P10275, T878A)

>  <OUTCOME_MEASURE>
DC50

>  <RESULT_NUMBER>
125

$$$$
>  <COMPOUND>
Cc1ncsc1-c1ccc(CNC(=O)[C@@H]2C[C@@H](O)CN2C(=O)[C@@H](NC(=O)COCCOCCOc2ccc(-c3ncc(N4C(=S)N(c5ccc(C#N)c(C(F)(F)F)c5F)C(=O)C4(C)C)cc3C(F)(F)F)cc2)C(C)(C)C)cc1

>  <TARGET>
AR (Homo sapiens, UniProt P10275, T878A)

>  <OUTCOME_MEASURE>
DC50

>  <RESULT_NUMBER>
51.1

$$$$
>  <COMPOUND>
CC1(C)C(=O)N(c2ccc(C#N)c(C(F)(F)F)c2F)C(=S)N1c1ccc(-c2ccc(OCCNC(=O)COc3cccc4c3C(=O)N(C3CCC(=O)NC3=O)C4=O)c(C#N)c2)nc1 (stereo not shown)

>  <TARGET>
AR (Homo sapiens, UniProt P10275, T878A)

>  <OUTCOME_MEASURE>
DC50

>  <RESULT_NUMBER>
93

$$$$
>  <COMPOUND>
Cc1ncsc1-c1c[nH]c([C@@H]2C[C@@H](O)CN2C(=O)[C@@H](NC(=O)COCCCCOc2ccc(-c3ncc(N4C(=S)N(c5ccc(C#N)c(C(F)(F)F)c5F)C(=O)C4(C)C)cc3F)c(C(F)(F)F)c2)C(C)(C)C)n1

>  <TARGET>
AR (Homo sapiens, UniProt P10275, T878A)

>  <OUTCOME_MEASURE>
DC50

>  <RESULT_NUMBER>
43.8

$$$$
